system_tested: Prostaglandin G/H synthase 2 (Ovis aries)
recorded_conditions: 30 uM
Description: Inhibition of ovine COX2 using arachidonic acid as substrate at 30 uM preincubated for 10 mins before substrate addition measured after 5 mins by EIA
inhibition values for the compounds below.
assay_endpoint: inhibition (%)

INSERT INTO results (line_notation, observed_value) VALUES
  ('CCCOc1c(C(C)=O)c(C)cc2cccc(O)c12', 47),
  ('COc1cccc2cc(C)c(C(C)=O)c(O)c12', 61.7),
  ('CC(=O)c1c(C)cc2cccc(OCc3ccccc3Br)c2c1O', 83.1),
  ('CC(=O)c1c(C)cc2cccc(OCc3ccccc3)c2c1O', 89.9),
  ('COCOc1c(C(C)=O)c(C)cc2cccc(O)c12', 61.5),
  ('Cc1cc(OCc2ccccc2Br)c2c(c1)C(=O)c1cccc(OCc3ccccc3Br)c1C2=O', 62),
  ('CC(=O)c1c(C)cc2cccc(O)c2c1O', 59.4),
  ('CC(=O)c1c(C)cc2cccc(O)c2c1OCc1ccccc1', 68.2),
  ('Cc1cc(OCc2ccc(I)cc2)c2c(c1)C(=O)c1cccc(OCc3ccc(I)cc3)c1C2=O', 77.8),
  ('Cc1cc(OCc2ccccc2)c2c(c1)C(=O)c1cccc(OCc3ccccc3)c1C2=O', 76.5),
  ('COc1c(C(C)=O)c(C)cc2cccc(O)c12', 55.5);

---

system_tested: Prostaglandin G/H synthase 1 (Ovis aries)
Sequence (whole entry): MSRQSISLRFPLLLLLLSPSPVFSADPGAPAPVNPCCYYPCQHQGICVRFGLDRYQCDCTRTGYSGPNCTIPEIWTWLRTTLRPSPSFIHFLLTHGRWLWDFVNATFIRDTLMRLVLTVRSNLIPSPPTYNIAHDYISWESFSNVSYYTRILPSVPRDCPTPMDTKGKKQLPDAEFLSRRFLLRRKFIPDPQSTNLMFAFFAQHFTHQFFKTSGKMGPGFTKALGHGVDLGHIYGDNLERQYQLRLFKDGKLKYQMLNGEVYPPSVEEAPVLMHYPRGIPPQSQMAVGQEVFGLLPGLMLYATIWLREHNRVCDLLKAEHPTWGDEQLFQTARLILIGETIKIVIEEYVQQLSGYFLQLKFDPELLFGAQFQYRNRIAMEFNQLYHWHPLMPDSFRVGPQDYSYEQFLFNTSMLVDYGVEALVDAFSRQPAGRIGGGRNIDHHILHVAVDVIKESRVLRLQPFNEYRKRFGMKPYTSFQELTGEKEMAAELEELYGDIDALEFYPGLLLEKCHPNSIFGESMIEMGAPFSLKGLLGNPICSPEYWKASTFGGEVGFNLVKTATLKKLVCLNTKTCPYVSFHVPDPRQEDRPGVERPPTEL
assay_name: Inhibition of ovine COX1 using arachidonic acid as substrate at 30 uM preincubated for 10 mins before substrate addition measured after 5 mins by EIA
assay_endpoint: inhibition (%)

INSERT INTO results (line_notation, reading_unit, observed_value) VALUES
  ('CC(=O)c1c(C)cc2cccc(O)c2c1OCc1ccccc1', '%', 60.2),
  ('CCCOc1cccc2c1C(=O)c1c(OCCC)cc(C)cc1C2=O', '%', 39.6),
  ('CC(=O)c1c(C)cc2cccc(OCc3ccccc3Br)c2c1O', '%', 63.6),
  ('COc1cccc2cc(C)c(C(C)=O)c(O)c12', '%', 69.8),
  ('CC(=O)c1c(C)cc2cccc(OCc3ccccc3)c2c1O', '%', 83.4),
  ('Cc1cc(OCc2ccccc2Br)c2c(c1)C(=O)c1cccc(OCc3ccccc3Br)c1C2=O', '%', 27.2);
